Target: renin in human plasma (Homo sapiens)
Sequence (P00797 67-406): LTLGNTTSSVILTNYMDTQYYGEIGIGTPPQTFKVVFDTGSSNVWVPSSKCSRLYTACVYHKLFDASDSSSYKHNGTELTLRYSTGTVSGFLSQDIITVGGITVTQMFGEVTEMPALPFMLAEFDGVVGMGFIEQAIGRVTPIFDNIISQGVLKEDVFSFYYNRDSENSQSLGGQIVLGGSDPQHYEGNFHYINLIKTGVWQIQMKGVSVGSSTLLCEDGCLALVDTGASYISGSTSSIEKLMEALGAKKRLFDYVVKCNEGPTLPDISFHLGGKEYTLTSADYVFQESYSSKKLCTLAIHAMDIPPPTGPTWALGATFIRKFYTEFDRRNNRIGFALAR
Assay: Inhibition of renin in human plasma
readout_kind: IC50 (nM)
Answer in nM, number only, no unit symbol.

Measured IC50, COCCCc1ccc(Cl)c(CN(C(=O)C(CN)Cc2cccnc2N)C2CC2)c1 (stereo not shown) : 240
